Numbers sourced from patent US9234006B2.

tested on: A. baumannii ATCC19606; experiment: MIC susceptibility testing, broth microdilution in CaMHB; type: cell-based, Acinetobacter baumannii; details: Table 4
Where a name gives a salt, the structure may show the parent alone. Where a SMILES comes first, the peptide text is derived from it. Bridges are numbered along the chain shown (N, C = ends). [ ]: non-standard residue; d: D form. The star is where a group is joined. ξ: configuration not given here. Thr(3ξ) = CC(O)[C@H](N)C(=O)O; Dab = NCC[C@H](N)C(=O)O; X2 = NC1CCCC1C(=O)*; GABA = NCCCC(=O)O; βAla = NCCC(=O)O

| Molecule | Target | MIC |
| --- | --- | --- |
| CC(C)C[C@@H]1NC(=O)[C@@H](Cc2ccccc2)NC(=O)[C@H](CCN)NC(=O)[C@@H](NC(=O)[C@H](CCN)NC(=O)[C@@H](NC(=O)CCCN)[C@@H](C)O)CCNC(=O)[C@H]([C@@H](C)O)NC(=O)[C@H](CCN)NC(=O)[C@H](CCN)NC1=O [Example 6, Sulphate Salt] (H-[GABA]T[Dab][Dab][Dab][dF]L[Dab][Dab]T; lactam 4-C) | A. baumannii ATCC19606 | 0.25 micrograms/mL |
| CC(C)C[C@@H]1NC(=O)[C@@H](Cc2ccccc2)NC(=O)[C@H](CCN)NC(=O)[C@@H](NC(=O)[C@H](CCN)NC(=O)[C@@H](NC(=O)C2CCCC2N)C(C)O)CCNC(=O)[C@H](C(C)O)NC(=O)[C@H](CCN)NC(=O)[C@H](CCN)NC1=O (stereo partly drawn) [Example 11, Sulphate Salt] (X2-[Thr(3ξ)][Dab][Dab][Dab][dF]L[Dab][Dab][Thr(3ξ)]; lactam 3-C) | A. baumannii ATCC19606 | 2 micrograms/mL |
| CC(C)C[C@@H]1NC(=O)[C@@H](Cc2ccccc2)NC(=O)[C@H](CCN)NC(=O)[C@@H](NC(=O)[C@H](CCN)NC(=O)[C@@H](NC(=O)CCN)C(C)O)CCNC(=O)[C@H](C(C)O)NC(=O)[C@H](CCN)NC(=O)[C@H](CCN)NC1=O (stereo partly drawn) [Example 4, Sulphate Salt] (H-[βAla][Thr(3ξ)][Dab][Dab][Dab][dF]L[Dab][Dab][Thr(3ξ)]; lactam 4-C) | A. baumannii ATCC19606 | 1 micrograms/mL |

---

system: K. pneumoniae NCTC8172; assay: MIC susceptibility testing, broth microdilution in CaMHB; assay type: cell-based, Klebsiella pneumoniae; conditions: Table 4
Structures can show the parent of a compound that is named as a salt. Where a SMILES comes first, the peptide text is derived from it. Bridges are numbered along the chain shown (N, C = ends). [ ]: non-standard residue; d: D form. ξ: configuration not given here. Thr(3ξ) = CC(O)[C@H](N)C(=O)O; Dab = NCC[C@H](N)C(=O)O; Aoc = NCCCCCCCC(=O)O; Ahx = NCCCCCC(=O)O
Endpoint Label: MIC

| Compound | Data Value |
| --- | --- |
| CC(C)C[C@@H]1NC(=O)[C@@H](Cc2ccccc2)NC(=O)[C@H](CCN)NC(=O)[C@@H](NC(=O)[C@H](CCN)NC(=O)[C@@H](NC(=O)CCCCCN)C(C)O)CCNC(=O)[C@H](C(C)O)NC(=O)[C@H](CCN)NC(=O)[C@H](CCN)NC1=O (stereo partly drawn) [Example 7, Sulphate Salt] (H-[Ahx][Thr(3ξ)][Dab][Dab][Dab][dF]L[Dab][Dab][Thr(3ξ)]; lactam 4-C) | >32 micrograms/mL |
| CC(C)C[C@@H]1NC(=O)[C@@H](Cc2ccccc2)NC(=O)[C@H](CCN)NC(=O)[C@@H](NC(=O)[C@H](CCN)NC(=O)[C@@H](NC(=O)CN)C(C)O)CCNC(=O)[C@H](C(C)O)NC(=O)[C@H](CCN)NC(=O)[C@H](CCN)NC1=O (stereo partly drawn) [Example 3, Sulphate Salt] (H-G[Thr(3ξ)][Dab][Dab][Dab][dF]L[Dab][Dab][Thr(3ξ)]; lactam 4-C) | >32 micrograms/mL |
| CC(C)C[C@@H]1NC(=O)[C@@H](Cc2ccccc2)NC(=O)[C@H](CCN)NC(=O)[C@@H](NC(=O)[C@H](CCN)NC(=O)[C@@H](NC(=O)CCCCCCCN)C(C)O)CCNC(=O)[C@H](C(C)O)NC(=O)[C@H](CCN)NC(=O)[C@H](CCN)NC1=O (stereo partly drawn) [Example 9, Sulphate Salt] (H-[Aoc][Thr(3ξ)][Dab][Dab][Dab][dF]L[Dab][Dab][Thr(3ξ)]; lactam 4-C) | >32 micrograms/mL |
